# Target system: ALK5 kinase (Homo sapiens)
# Construct: GST; purchased Thermo Fisher Scientific Solutions
# Assay overview: Activity inhibition test on ALK5 enzyme (LanthaScreen Eu binding kinase assay)
# Conditions used: kinase tracer 178, 60 minutes at room temperature
Recorded IC50, one value per entry.

For orientation, consider the following solved cases.
CNC(=O)c1ccc(NC(=O)c2cc(-c3ccc4ncnn4c3)n(-c3cccc(C)n3)n2)cc1: 10 to 100 nM
CCOc1ccc(NC(=O)c2cc(-c3ccc4ncsc4c3)n(-c3cccc(C)n3)n2)cc1: 4.7 nM

For "Cc1cccc(-n2nc(C(=O)Nc3ccccc3C)cc2-c2ccc3ncnn3c2)n1" the molecule record lists IC50 as 10 to 100 nM

For "CN(C)c1ccc(NC(=O)c2cc(-c3ccc4nccnc4c3)n(-c3cc(Cl)ccc3F)n2)cc1" the molecule record lists IC50 as ~100 nM

###

# Target system: ALK5 kinase (Homo sapiens, UniProt P36897)
# Construct: GST; purchased Thermo Fisher Scientific Solutions
# Assay overview: Activity inhibition test on ALK5 enzyme (LanthaScreen Eu binding kinase assay)
# Conditions used: kinase tracer 178, 60 minutes at room temperature
Observable: IC50

For orientation, consider the following solved cases.
Cc1cccc(-n2nc(C(=O)Nc3ccc(N(C)C)cc3)cc2-c2ccc3ncnn3c2)n1 [Example 104]: 7 nM
CNC(=O)c1ccccc1NC(=O)c1cc(-c2ccc3ncnn3c2)n(-c2cccc(C)n2)n1 [Example 112]: 10 to 100 nM

Here is another compound to look at.
For Cc1cccc(-n2nc(C(=O)Nc3ccc(OC(C)C)cc3)cc2-c2ccc3ncnn3c2)n1 [Example 94] the compound record lists IC50 as ~10 nM

###

# Target system: ALK5 kinase (Homo sapiens, UniProt P36897)
# Construct: GST; purchased Thermo Fisher Scientific Solutions
# Assay overview: Activity inhibition test on ALK5 enzyme (LanthaScreen Eu binding kinase assay)
# Conditions used: kinase tracer 178, 60 minutes at room temperature
# Protocol: For each of the compounds obtained in Examples 1 to 227, inhibitory activity against ALK5 kinase was measured. For this, a LanthaScreen Eu binding kinase assay method was used, and ALK5 kinase, a kinase buffer, a kinase tracer 178, and a LanthaScreen Eu-GST binding antibody were all purchased from Thermo Fisher Scientific Solutions. […] Then a fluorescence value was measured using a fluorescence meter (molecular device) ([…], 665 nm emission filter). […]
Recorded IC50, one value per entry.

CC(=O)N1CCN(c2ccc(NC(=O)c3cc(-c4ccc5ncnn5c4)n(-c4cccc(C)n4)n3)cc2)CC1 [Example 108]: ~10 nM
Cc1cccc(-n2nc(C(=O)Nc3ccc(C#N)cc3)cc2-c2ccc3nccnc3c2)n1 [Example 174]: < 100 nM
Cc1cccc(-n2nc(C(=O)NCc3cccc(Cl)c3)cc2-c2ccc3nccnc3c2)n1 [Example 200]: 10 to 100 nM
Cc1cccc(-n2nc(C(=O)Nc3ccc(OC(F)(F)F)cc3)cc2-c2ccc3ncnn3c2)n1 [Example 101]: 10 to 100 nM
Cc1cccc(-n2nc(C(=O)Nc3ccc(C(F)(F)F)cc3)cc2-c2ccc3nccnc3c2)n1 [Example 180]: 100 to 1000 nM

For Cc1cccc(-n2nc(C(=O)Nc3ccccc3OC(F)(F)F)cc2-c2ccc3ncnn3c2)n1 [Example 99] the compound record lists IC50 as ~10 nM

###

# Target system: ALK5 kinase (Homo sapiens, UniProt P36897)
# Construct: GST; purchased Thermo Fisher Scientific Solutions
# Sequence (P36897 34-503): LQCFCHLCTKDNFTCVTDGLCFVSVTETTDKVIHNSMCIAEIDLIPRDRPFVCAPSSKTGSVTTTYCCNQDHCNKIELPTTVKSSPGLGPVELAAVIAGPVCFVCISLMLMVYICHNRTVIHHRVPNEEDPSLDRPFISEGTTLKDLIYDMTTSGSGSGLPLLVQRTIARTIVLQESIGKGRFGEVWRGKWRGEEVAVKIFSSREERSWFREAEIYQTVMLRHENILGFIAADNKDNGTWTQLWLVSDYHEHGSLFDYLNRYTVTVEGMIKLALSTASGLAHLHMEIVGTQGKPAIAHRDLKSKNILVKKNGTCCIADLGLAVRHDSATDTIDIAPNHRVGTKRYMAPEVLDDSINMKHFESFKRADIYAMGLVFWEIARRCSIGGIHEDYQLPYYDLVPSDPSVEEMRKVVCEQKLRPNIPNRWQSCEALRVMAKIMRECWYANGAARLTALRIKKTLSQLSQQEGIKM
# Assay overview: Activity inhibition test on ALK5 enzyme (LanthaScreen Eu binding kinase assay)
# Conditions used: kinase tracer 178, 60 minutes at room temperature
Observable: IC50

For orientation, consider the following solved cases.
Cc1cccc(-n2nc(C(=O)Nc3ccc(N(C)C)cc3)cc2-c2ccc3ncsc3c2)n1: 10 to 100 nM
Cc1cccc(-n2nc(C(=O)Nc3cccc(Br)c3)cc2-c2ccc3ncnn3c2)n1: 10 to 100 nM
COc1ccc(NC(=O)c2cc(-c3ccc4nccnc4c3)n(-c3cc(Cl)ccc3F)n2)cc1: > 100 nM
CC(=O)c1cccc(NC(=O)c2cc(-c3ccc4ncnn4c3)n(-c3cccc(C)n3)n2)c1: 10 to 100 nM
C=Cc1cccc(NC(=O)c2cc(-c3ccc4ncsc4c3)n(-c3cccc(C)n3)n2)c1: 10 to 100 nM

Here is another molecule to look at.
For "CC(=O)Nc1ccc(CNC(=O)c2cc(-c3ccc4ncnn4c3)n(-c3cccc(C)n3)n2)cc1" the molecule record lists IC50 as 10 to 100 nM
